target: Cytochrome P450 2D6 (Homo sapiens) (UniProt P10635); assay: Cytochrome panel assay with activity outcomes; conditions: recombinant CYP, pro-luciferin dealkylation, luminescence, p450-cyp2d6; series mostly up to 57.1 µM
Sequence (P10635 whole entry, looked up): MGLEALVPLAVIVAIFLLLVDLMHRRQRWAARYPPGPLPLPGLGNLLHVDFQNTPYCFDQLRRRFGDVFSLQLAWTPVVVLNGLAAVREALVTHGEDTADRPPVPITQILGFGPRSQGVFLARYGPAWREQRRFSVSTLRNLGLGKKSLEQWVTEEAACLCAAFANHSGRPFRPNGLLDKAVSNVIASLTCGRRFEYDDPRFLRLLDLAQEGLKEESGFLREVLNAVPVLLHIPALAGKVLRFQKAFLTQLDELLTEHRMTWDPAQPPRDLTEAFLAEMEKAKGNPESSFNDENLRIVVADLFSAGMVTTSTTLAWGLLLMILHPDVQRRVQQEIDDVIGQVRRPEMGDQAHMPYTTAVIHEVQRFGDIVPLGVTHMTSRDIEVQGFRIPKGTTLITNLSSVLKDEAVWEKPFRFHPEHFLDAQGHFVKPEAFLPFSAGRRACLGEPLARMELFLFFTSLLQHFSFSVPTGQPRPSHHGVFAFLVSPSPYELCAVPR
Out of some 16,000 compounds screened, about 2,600 (16%) were called active. About 20% were inconclusive and are not listed. The call rests on the fitted dose curve; in most records, active means well fitted curve in the direction sought with a large enough effect; inconclusive means small, poorly fitted or top-dose-only effect, or effect the other way; inactive means no such curve, though single readings can be large or run the other way. These entries were drawn from the full list.
# output must be one of yes (1) (active), no (0) (inactive)

Problem: Outcome logged for O=c1c(-c2cccs2)nc2cnc(Oc3cccc(Cl)c3)nc2n1C[C@H]1CCCO1 in this assay:
Result: no (0)

Problem: // outcome(item) with item = CCn1c(SCC(=O)c2ccc3ccccc3c2)nnc1-c1cccs1
Result: yes (1)

Problem: Hi, sorry to bother you, what did the test record for COc1ccc2nc(NC(=O)CSc3nnc(C)s3)sc2c1 ?
Result: no (0)

Problem: Per the records of this test, what outcome belongs to Cc1ccc2c(C)nc(Nc3nc(CSc4nc5ccccc5[nH]4)cc(=O)[nH]3)nc2c1 ?
Result: yes (1)

Problem: Hi, do you know how CCOc1ccc(C(C)=O)cc1N1C(=O)C2C3C=CC(O3)C2C1=O (stereo not given) came out in this test?
Result: no (0)

---

Each entry below carries its recorded activity, negative = inhibition.
target: Cytochrome P450 2D6 (Homo sapiens) (UniProt P10635); assay: Cytochrome panel assay with activity outcomes; conditions: recombinant CYP, pro-luciferin dealkylation, luminescence, p450-cyp2d6; series mostly up to 57.1 µM; on activity, negative = inhibition: on the % scale 0 is the no-effect control and ±100 the full control effect
In all, about 16,000 compounds went through this assay and about 2,600 (16%) were called active. Inconclusive results (about 20%) are left out. A selection follows.

Past entries and their recorded results:
- CHEM SMILES: "C/C(=N/S(=O)(=O)c1ccc(Cl)c(Cl)c1)OCC(C)(C)C"
  activity, negative = inhibition: "8.65% [at 11.4 µM] (inactive)"
- CHEM SMILES: "O=C(O)[C@@H]1[C@@H](C(=O)Nc2ncccn2)[C@@H]2C=C[C@@H]1O2"
  activity, negative = inhibition: "15.2% [at 11.4 µM] (inactive)"
- CHEM SMILES: "CC1=CC(=O)CC(C)(C)[C@]1(O)/C=C\\C(C)=C\\C(=O)O"
  activity, negative = inhibition: "11.4% [at 11.4 µM] (inactive)"
- CHEM SMILES: "O=C(O)/C=C\\C(=O)N1Cc2cc3ccccc3nc2C1"
  activity, negative = inhibition: "-1.33% [at 11.4 µM] (inactive)"
- CHEM SMILES: "C[C@H]1/C=C\\CC(=O)OC[C@H](C)C(=O)N2CCC[C@@H]2C(=O)OC1"
  activity, negative = inhibition: "-8.94% [at 11.4 µM] (inactive)"

Problem: Requested read-out: activity, negative = inhibition. Entry: O=C(O)/C=C\C(=O)Nc1cccc2c1-c1ccccc1C2=O
Result: 10.1% [at 11.4 µM] (inactive)

Problem: Any idea what activity, negative = inhibition was measured for CN(C)CN1C(=O)S/C(=C2/C(=O)N(CN(C)C)c3ccccc32)C1=O ?
Result: -3.13% [at 11.4 µM] (inactive)

Problem: Could you tell me which activity, negative = inhibition is on file for N=C(N)SCCSC(=N)N ?
Result: 5.17% [at 11.4 µM] (inactive)

Problem: Recorded activity, negative = inhibition for COC(=O)C/C=C\[C@@H](C)[C@@H](/C=N\O[C@@H](C)c1cn([C@H]2COC[C@H]2O)nn1)OC , please?
Result: 15.1% [at 11.4 µM] (inactive)

Problem: Sample C[C@H](CN(C)C)C(=O)c1ccccc1C(=O)O — what was its activity, negative = inhibition?
Result: 9.39% [at 11.4 µM] (inactive)

Problem: Need activity, negative = inhibition, item CC1=NN(c2ccc(S(=O)(=O)O)cc2)C(=O)/C1=C\c1ccc(Cl)cc1
Result: 5.53% [at 11.4 µM] (inactive)

Problem: Query (compound): O=C(O)CC12C[C@H]3C[C@@H](CC(O)(C3)C1)C2 ; field requested: activity, negative = inhibition
Result: 1.29% [at 11.4 µM] (inactive)

Problem: Value lookup for activity, negative = inhibition; key = OC[C@@H]1O[C@@H](O)[C@H](N=Cc2ccc3c(c2)OCO3)[C@@H](O)[C@@H]1O
Result: 0.161% [at 11.4 µM] (inactive)

Problem: activity, negative = inhibition for Nc1ccccc1CCCC(=O)O ?
Result: -8.09% [at 11.4 µM] (inactive)

Problem: Need activity, negative = inhibition, item COC(=O)[C@@H]1[C@@H](O)[C@]2(O)c3ccccc3O[C@]2(c2ccccc2)[C@H]1c1ccccc1
Result: -3% [at 11.4 µM] (inactive)

Problem: Give the measured activity, negative = inhibition of Cc1ccc(S(=O)(=O)N=Nc2c(O)[nH]c3cc(O)c(C(=O)O)cc23)cc1 .
Result: 6.63% [at 11.4 µM] (inactive)

Problem: Record request: activity, negative = inhibition value, item O=C(O)c1nnsc1COCc1ccccc1
Result: 7.15% [at 11.4 µM] (inactive)

Problem: Entry OCCCSCCO : reported activity, negative = inhibition = ?
Result: -3.94% [at 11.4 µM] (inactive)

Problem: Could you tell me which activity, negative = inhibition is on file for C[C@@H](CSC(=N)N)C(N)=O ?
Result: 4.14% [at 11.4 µM] (inactive)

Problem: # lookup: activity, negative = inhibition of O=C(O)C[C@H](NC(=O)CP(=O)(O)O)C(=O)O.[NH-][C@@H]1CCCC[C@@H]1[NH-].[Pt]
Result: 7.2% [at 11.4 µM] (inactive)

Problem: // returns reported activity, negative = inhibition for input O=C(O)[C@@H]1[C@H](C(=O)O)[C@H]2C(=O)C=C[C@H]1N2Cc1ccccc1
Result: 3.08% [at 11.4 µM] (inactive)

Problem: I would be grateful if you could share the reported activity, negative = inhibition for CC(C)(CO[C@H]1C[C@H]2CC[C@@]1(C)C2(C)C)[N+](=O)[O-] .
Result: 11.9% [at 11.4 µM] (inactive)

Problem: Entry under review: O=c1[nH]c2[nH]c(=S)[nH]c(=S)c2[nH]1 . Reported activity, negative = inhibition?
Result: -8.17% [at 11.4 µM] (inactive)

Problem: Dear colleague, I am looking for the recorded activity, negative = inhibition of the following compound: CCN1C(=O)[C@H]2[C@H]3[C@H](O)[C@H](O)C/C(=N/OCC(C)C)[C@H]3CC[C@@H]2C1=O
Result: -6.52% [at 11.4 µM] (inactive)
